System: ATP;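 further: ATP exposure 15 min at 22 °C before imaging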
Test Name: switch fluorescence ratio, 500 uM ATP over buffer (Cy3 cluster intensity, sum of 5 cycles each) (fold (ratio)); higher = stronger signal-on switching upon ATP binding; sequences stand for … in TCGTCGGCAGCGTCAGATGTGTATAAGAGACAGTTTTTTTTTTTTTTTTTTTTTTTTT…TC
Assay Conditions: aptamer strand: ATP DNA aptamer (quencher-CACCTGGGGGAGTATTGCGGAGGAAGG + anchor), 100 nM annealed; ATP concentration: 500 uM
The sequences listed here are annotated with their switch fluorescence ratio.
API doc: respond with a numeric literal and nothing else, no unit.

ATTTCGGGAG	1.01
GCGGCGGCGT	1
TCAATCAGGT	1.03
TGGTTATTAT	0.991
ACGGGTGGGG	1.05
GTAAACGGGT	0.963

Q. Given ATGGGCGGGT , respond with its switch fluorescence ratio.
A. 1

Q. Given AAATGGATAG , respond with its switch fluorescence ratio.
A. 1.01

====

Test system: ATP;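 further: ATP exposure 15 min at 22 °C before imaging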
Test Name: switch fluorescence ratio, 500 uM ATP over buffer (Cy3 cluster intensity, sum of 5 cycles each) (fold (ratio)); higher = stronger signal-on switching upon ATP binding; sequences stand for … in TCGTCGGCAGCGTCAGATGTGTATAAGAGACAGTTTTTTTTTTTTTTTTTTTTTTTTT…TC
Assay Conditions: aptamer strand: ATP DNA aptamer (quencher-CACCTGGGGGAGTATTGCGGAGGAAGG + anchor), 100 nM annealed; ATP concentration: 500 uM
Decision: switch fluorescence ratio >= 1 yields 1 (yes), all other cases yield 0 (no).

Below are worked cases with known answers.
CGGGCGATGG	1 (yes)
TAGTAATATT	1 (yes)
GCATTTTAGG	0 (no)
TGAGCACAGG	1 (yes)
GCTGTAGGTG	1 (yes)

Q. Could you please find out whether AGCTAGAGCT has switch fluorescence ratio that meets 1 or exceeds it?
A. 0 (no)

Q. Could you please find out whether AAGTCCCGCT has switch fluorescence ratio that meets 1 or exceeds it?
A. 1 (yes)

Q. Could you please find out whether CACACAGTCG has switch fluorescence ratio that meets 1 or exceeds it?
A. 1 (yes)

Q. Could you please find out whether AAACTTAATG has switch fluorescence ratio that meets 1 or exceeds it?
A. 1 (yes)

Q. Could you please find out whether GCGGGTCTGG has switch fluorescence ratio that meets 1 or exceeds it?
A. 1 (yes)

Q. Could you please find out whether TGGGACGGGT has switch fluorescence ratio that meets 1 or exceeds it?
A. 0 (no)

Q. Could you please find out whether ATGTTGTTGG has switch fluorescence ratio that meets 1 or exceeds it?
A. 0 (no)

====

System: ATP;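 further: ATP exposure 15 min at 22 °C before imaging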
Test Name: switch fluorescence ratio, 500 uM ATP over buffer (Cy3 cluster intensity, sum of 5 cycles each) (fold (ratio)); higher = stronger signal-on switching upon ATP binding; sequences stand for … in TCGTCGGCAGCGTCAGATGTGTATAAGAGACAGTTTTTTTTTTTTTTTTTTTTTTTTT…TC
Assay Conditions: aptamer strand: ATP DNA aptamer (quencher-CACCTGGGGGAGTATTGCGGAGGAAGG + anchor), 100 nM annealed; ATP concentration: 500 uM
Measurement Type: switch fluorescence ratio
API doc: respond with a numeric literal and nothing else, no unit.

Some sequences with known switch fluorescence ratio results, for comparison:
AAATGGAGAC	1.01
TAATTTGAGT	1
CCCAAAAACG	1.25
CGAAAGAGAG	0.991
TTCATTACCC	1.03

Q. Given TATTGAGATA , respond with its switch fluorescence ratio.
A. 1.01

Q. Given GGGGATATGC , respond with its switch fluorescence ratio.
A. 0.995

Q. Given CACGGGGCGC , respond with its switch fluorescence ratio.
A. 0.977

Cited source: the supplement of paper PMC10126150
